The binders listed here are annotated with their koff.
- tested-system: T1, Human BCMA (human, UniProt Q02223 1-54, limits assumed)
- T1 construct: Soluble analyte in SPR; construct not described; also called huBCMA; B-cell maturation antigen
- T1 sequence (looked up): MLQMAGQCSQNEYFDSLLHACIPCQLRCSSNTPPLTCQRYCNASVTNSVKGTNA
- assay-remarks: SPR, IgG immobilised, 37 C
outcome-measure: koff (s⁻¹)

| binder | reported-result |
| --- | --- |
| L3.PY/L1.FF/H3.AE (antibody, V domains shown, IgG) VH: EVQLLESGGGLVQPGGSLRLSCAASGFTFGSYAMTWVRQAPGKGLEWVSAISGSGGNTFYADSVKGRFTISRDNSKNTLYLQMNSLRAEDTAVYYCARVSPIAAEMDYWGQGTLVTVSS VL: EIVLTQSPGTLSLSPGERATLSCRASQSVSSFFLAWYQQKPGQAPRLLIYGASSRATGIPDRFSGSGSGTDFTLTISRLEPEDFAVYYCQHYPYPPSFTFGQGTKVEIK | 0.00263 |
| L3.PY/L1.AH/H2.LT (antibody, V domains shown, IgG) VH: EVQLLESGGGLVQPGGSLRLSCAASGFTFGSYAMTWVRQAPGKGLEWVSAISLTGGNTFYADSVKGRFTISRDNSKNTLYLQMNSLRAEDTAVYYCARVSPIASGMDYWGQGTLVTVSS VL: EIVLTQSPGTLSLSPGERATLSCRASQSVSAHYLAWYQQKPGQAPRLLIYGASSRATGIPDRFSGSGSGTDFTLTISRLEPEDFAVYYCQHYPYPPSFTFGQGTKVEIK | 0.00123 |
| L3.PY/H2.LT (antibody, V domains shown, IgG) VH: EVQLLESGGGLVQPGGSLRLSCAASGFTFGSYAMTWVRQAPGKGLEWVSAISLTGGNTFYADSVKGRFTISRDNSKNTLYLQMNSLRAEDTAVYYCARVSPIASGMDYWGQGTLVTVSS VL: EIVLTQSPGTLSLSPGERATLSCRASQSVSSSYLAWYQQKPGQAPRLLIYGASSRATGIPDRFSGSGSGTDFTLTISRLEPEDFAVYYCQHYPYPPSFTFGQGTKVEIK | 0.00129 |
